molecular target: Fuc(a1-2)Gal(b1-4)[Fuc(a1-3)]GlcNAc(b1-3)GalNAc; assay: glycan array binding signal (z-score within array); higher = stronger binding; details: glycan notation: IUPAC condensed, linker removed
Shown is part of a subset that was picked to be rich in the strongest signals.
Measurement name: glycan array binding signal (z-score)

Binder: ArathEULS3 (Arabidopsis thaliana), Q945P1 (protein) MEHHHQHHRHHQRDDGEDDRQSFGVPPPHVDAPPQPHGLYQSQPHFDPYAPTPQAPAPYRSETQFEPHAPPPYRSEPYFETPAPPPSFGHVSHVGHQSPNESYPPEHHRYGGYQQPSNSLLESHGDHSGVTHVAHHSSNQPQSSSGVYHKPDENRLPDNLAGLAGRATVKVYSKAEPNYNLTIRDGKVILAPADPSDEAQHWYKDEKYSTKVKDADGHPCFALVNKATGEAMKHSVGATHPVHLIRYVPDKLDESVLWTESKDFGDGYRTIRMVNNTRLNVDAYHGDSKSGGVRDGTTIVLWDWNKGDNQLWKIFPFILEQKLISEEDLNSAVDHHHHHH
Measurement name: glycan array binding signal (z-score)
Endpoint value: 11.8
//
Binder: LlpA1 (Pseudomonas fluorescens), Q4KHC3 (protein) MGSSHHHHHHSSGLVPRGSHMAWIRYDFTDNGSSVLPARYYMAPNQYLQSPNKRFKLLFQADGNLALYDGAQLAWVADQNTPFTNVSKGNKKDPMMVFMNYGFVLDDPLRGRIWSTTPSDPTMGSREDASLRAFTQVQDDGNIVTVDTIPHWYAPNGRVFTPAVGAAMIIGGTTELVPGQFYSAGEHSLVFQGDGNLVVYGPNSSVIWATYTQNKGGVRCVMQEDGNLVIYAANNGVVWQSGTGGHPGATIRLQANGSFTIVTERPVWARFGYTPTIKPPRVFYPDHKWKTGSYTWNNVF
Measurement name: glycan array binding signal (z-score)
Endpoint value: 2.56
//
Binder: AT5G24760(45) (Arabidopsis thaliana), Q8LEB2 (protein) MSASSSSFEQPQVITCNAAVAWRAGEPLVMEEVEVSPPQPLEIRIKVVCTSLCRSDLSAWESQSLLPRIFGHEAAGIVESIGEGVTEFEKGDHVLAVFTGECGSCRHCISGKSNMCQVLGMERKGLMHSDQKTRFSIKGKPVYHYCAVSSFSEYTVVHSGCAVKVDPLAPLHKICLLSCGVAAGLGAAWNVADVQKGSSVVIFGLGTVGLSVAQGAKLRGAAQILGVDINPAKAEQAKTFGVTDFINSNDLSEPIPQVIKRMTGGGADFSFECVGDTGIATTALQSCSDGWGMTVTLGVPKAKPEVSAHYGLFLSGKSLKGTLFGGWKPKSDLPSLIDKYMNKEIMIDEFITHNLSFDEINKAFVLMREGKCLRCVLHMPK
Measurement name: glycan array binding signal (z-score)
Endpoint value: 4.6
//
Binder: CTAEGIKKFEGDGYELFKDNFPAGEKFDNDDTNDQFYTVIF [MUB40 (Lactobacillus reuteri)]
Measurement name: glycan array binding signal (z-score)
Endpoint value: 3.56
